- Tested on: MS2 coat protein
- PROCEDURE_SUMMARY: apparent Kd, MS2 coat protein; higher = weaker binding; RNA-MaP array; tryptophan 2.4 mM where present
- TEST_SETTINGS: ligand present: tryptophan; designed as: ON switch for tryptophan
METRIC_NAME: apparent Kd (µM)

# SEQ_TEXT, OBSERVED_MEASUREMENT
data = [
    ("GCAUCCUAGUCGGCCGCCACUGCAUGUAGGCAGUGCUGCUACAAACAUGAGGAUCACCCAUGUAGCAGGACCGGGACUAGGAUGC", 0.0131),
    ("UCGUUAUGGUCGGCCGCCACUCGCGGAGAGCAUAGCUCAAACAUGAGGAUCACCCAUGUAUCAUGGAGGACCGGGACCAUAACGU", 0.014),
    ("AGAGCAUUGACGGCCGCCACUCGUGUCACAUGAGGAUCACCCAUGUGAUGGGUGAUAGCCCGGUUGAGGACCGGGUCAAUGCUCA", 0.0192),
    ("GCAUCCUAGUCGGCCGCCACUGCAACAUGAGGAUCACCCAUGUCUGUAUGUGAUCCAUGCAGUAGCAGGACCGGGACUAGGAUGC", 0.13),
    ("AUAAAUAAGGCGGCCGCCACUAAUAUAUUAAUAUUUUAUAUCCGACAUGAGGAUCACCCAUGUGGUAGGACCGGGCCAAUAAUUA", 0.0258),
    ("CUAAUUAAAUCGGCCGCCACUUACUCAUGAGGUAACAACAUGAGGAUCACCCAUGUUUGAGGAUCAAGGACCGGGAUUUAAUUAG", 0.0182),
    ("CUACAUUUGUAGAAACCGGUCACCGUUACUCGAGGACCGGUACGGCCGCCACUCGUGUCACGUGAUACAUGAGGAUCACCCAUGU", 0.0313),
    ("UCGUUUUAGUCGGCCGCCACUGUAUGCAUGUUUAACAUGAGGAUCACCCAUGUCCCGUACUAUAACAGGACCGGGACGUAAUAGA", 0.1),
    ("CUACAUUUGUAGAAACCGGUCAACAAUAAUCGAGGACCGGUACGGCCGCCACUCGAUGUGAAAUACACAUGAGGAUCACCCAUGU", 0.0169),
    ("CUAUAUUUAUCGGCCGCCACUUACUCAUGAGGUAACAACAUGAGGAUCACCCAUGUUUGAGGAUCAAGGACCGGGAUAAAUAUAG", 0.0163),
    ("UAUCUACAUGAAUAGGUUAUUCGAUUAUUUCGAGGACCGGUACGGCCGCCACUCGUUAACAUAUACAUGAGGAUCACCCAUGUUA", 0.0159),
    ("CUAUGUAUAUAUGCGAAAGCUACGUGUUGACGAGGACCGGUACGGCCGCCACUCGACAUGAGGAUCACCCAUGUAAUAUAUAUAG", 0.0627),
    ("UGUGUGUGACCAGGAAAUGGUCACACACAGCGAGGACCGGUACGGCCGCCACUCGGCCGUACAUGAGGAUCACCCAUGUCGGGUA", 0.741),
    ("CACGCACGAUCGGCCGCCACUCAUGUAGCUUACAUGAGGAUCACCCAUGUAUUUUCUUUCUUUUAGAGGACCGGGAUCGUGCGUG", 0.0165),
]
